Values from PubChem BioAssay (EPA / NIEHS)

- PROTOCOL: ATG_CRE_CIS: Attagene CIS-FACTORIAL HepG2 Assay for human cAMP Responsive Element (CRE) binding protein 3 (AID 2282926)
- PROTOCOL CONDITIONS: HepG2 CRE cis-reporter, Attagene multiplexed mRNA; actives raise or lower the signal
Calls of active or inactive are those of the source. Rule for the calls: active = hit-call score of the fitted dose curve at least 0.9, where 1 is the maximum; inactive = score below 0.9.
Classes used: label 1 for active, label 0 for inactive

| MOLECULE | CATEGORY LABEL |
| --- | --- |
| O=S(=O)(OCC(F)(F)F)C(F)(F)C(F)(F)C(F)(F)C(F)(F)F | label 0 |
| CCCCCCCCCCCCCC[P+](CCCC)(CCCC)CCCC | label 1 |
| NC(=O)C(F)(F)C(F)(F)C(F)(F)C(F)(F)C(N)=O | label 0 |
| CCn1c2ccccc2c2ccccc21 | label 0 |
| O=C(O)CCC(F)(F)C(F)(F)C(F)(F)C(F)(F)C(F)(F)C(F)(F)C(F)(F)F | label 0 |
| O=C1OC(=O)c2ccc3c4c(ccc1c24)C(=O)OC3=O | label 0 |
| NC(=O)C(F)(F)C(F)(F)C(F)(F)C(F)F | label 0 |
| Cc1ccc([N+](=O)[O-])c(C)c1 | label 0 |
| CCCCCCCC/C=C\CCCCCCCC(=O)OCC(O)CO (configuration not stated) | label 0 |
| O=C(Cl)C(F)(F)C(F)(F)C(F)(F)C(F)(F)C(F)(F)C(F)(F)F | label 0 |
| CCCCCCCCCCCCC[N+](C)(C)Cc1ccccc1 | label 0 |
| OCCC(O)CO (configuration not stated) | label 0 |

---

- ASSAYED SYSTEM: Estrogen receptor (Homo sapiens) (UniProt P03372)
- Sequence (P03372 whole entry, looked up): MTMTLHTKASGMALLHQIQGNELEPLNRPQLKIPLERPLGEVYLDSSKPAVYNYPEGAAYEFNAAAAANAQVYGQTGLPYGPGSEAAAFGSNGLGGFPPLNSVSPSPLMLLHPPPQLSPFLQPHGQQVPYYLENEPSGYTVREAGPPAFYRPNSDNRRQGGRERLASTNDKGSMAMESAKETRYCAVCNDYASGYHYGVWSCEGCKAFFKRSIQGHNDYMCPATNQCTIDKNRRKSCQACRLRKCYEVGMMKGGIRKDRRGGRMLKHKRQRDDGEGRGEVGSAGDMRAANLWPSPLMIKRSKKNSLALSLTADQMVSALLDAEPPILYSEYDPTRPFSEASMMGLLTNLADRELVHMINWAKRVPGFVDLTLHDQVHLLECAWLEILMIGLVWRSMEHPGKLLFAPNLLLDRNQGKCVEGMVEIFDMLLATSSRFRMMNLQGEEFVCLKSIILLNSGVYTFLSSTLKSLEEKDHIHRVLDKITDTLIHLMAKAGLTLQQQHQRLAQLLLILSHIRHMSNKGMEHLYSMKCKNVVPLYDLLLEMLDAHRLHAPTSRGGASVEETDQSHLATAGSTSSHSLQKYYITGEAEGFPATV
- PROTOCOL: OT_ERa_GFPERaERE_0120: Odyssey Thera (OT) 2-hour HeLa Transcription Induction Assay for Estrogen Receptor (AID 2283382)
Activity calls are given as the source filed them. Rule for the calls: active = hit-call score of the fitted dose curve at least 0.9, where 1 is the maximum; inconclusive = response in the unintended direction; inactive = score below 0.9.
Classes used: active, inactive

| COMPOUND | CATEGORY LABEL |
| --- | --- |
| CCCCC(CC)COC(=O)c1ccc(N(C)C)cc1 (stereo unspecified) | inactive |
| CCCCCCCC/C=C\CCCCCCCC(=O)N(C)CC(=O)O | inactive |
| CC(C)(C)c1cc(CCC(=O)OCC(COC(=O)CCc2cc(C(C)(C)C)c(O)c(C(C)(C)C)c2)(COC(=O)CCc2cc(C(C)(C)C)c(O)c(C(C)(C)C)c2)COC(=O)CCc2cc(C(C)(C)C)c(O)c(C(C)(C)C)c2)cc(C(C)(C)C)c1O | inactive |
| CCCCCCCCCCCCC[N+](C)(C)Cc1ccccc1 | active |
| CCCCOC(=O)[C@H](C)O | inactive |
| CCN=c1cc2oc3cc(NCC)c(C)cc3c(-c3ccccc3C(=O)OCC)c-2cc1C | inactive |

---

- PROTOCOL: BSK_3C_Vis: BioMAP Diversity Plus: 3C Assay for Morphology Visualization (AID 2283025);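 note: fitted both ways so gain or loss versus DMSO counts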
- PROTOCOL CONDITIONS: primary human endothelial cells (HUVEC)
Calls of active or inactive are those of the source. Rule for the calls: active = hit-call score of the fitted dose curve at least 0.9, where 1 is the maximum; inactive = score below 0.9.
Classes used: yes (1) (active), no (0) (inactive)

| COMPOUND | CATEGORY LABEL |
| --- | --- |
| O=C1c2c(O)ccc(Nc3ccc(CCO)cc3)c2C(=O)c2c([N+](=O)[O-])ccc(O)c21 | yes (1) |
| C[C@]12CC[C@H]3C(=CCc4cc(O)ccc43)[C@@H]1CCC2=O | no (0) |
| CCN(CC)c1ccc(C=O)c(O)c1 | no (0) |
| Cc1cc(C)c(O)c(C(C)(C)C)c1 | yes (1) |
| CC1=CC2C3C=CC(C3)C2C1C (stereo unspecified) | no (0) |
| Cc1ccc(O)c(-n2nc3ccccc3n2)c1 | no (0) |

---

- ASSAYED SYSTEM: human CYP2D6, CYP2D6 (gene 1565)
- PROTOCOL: NVS_ADME_hCYP2D6: NovaScreen (NVS) CYP450-related Enzyme Activity (ADME) Assay for human CYP2D6 (AID 2283107)
Calls of active or inactive are those of the source. Rule for the calls: active = hit-call score of the fitted dose curve at least 0.9, where 1 is the maximum; inconclusive = response in the unintended direction; inactive = score below 0.9.
Classes used: yes for active, no for inactive

| MOLECULE | ASSAYED SYSTEM | CATEGORY LABEL |
| --- | --- | --- |
| O=C(c1ccccc1)c1ccc(O)cc1O | human CYP2D6, CYP2D6 (gene 1565) | yes |
| C[C@]12CC[C@H]3C(=CCc4cc(O)ccc43)[C@@H]1CCC2=O | human CYP2D6, CYP2D6 (gene 1565) | no |
| O=C1c2c(O)ccc(Nc3ccc(CCO)cc3)c2C(=O)c2c([N+](=O)[O-])ccc(O)c21 | human CYP2D6, CYP2D6 (gene 1565) | yes |
| CC(C)=CCCC(C)O (stereo not given) | human CYP2D6, CYP2D6 (gene 1565) | no |
| CC1=CC2C3C=CC(C3)C2C1C (stereo not given) | human CYP2D6, CYP2D6 (gene 1565) | yes |

---

- Read-out: Low-density lipoprotein receptor (LDLR), LDLR (gene 3949)
- PROTOCOL: BSK_CASM3C_LDLR: BioMAP Diversity Plus: CASM3C Assay for Low-density lipoprotein receptor (LDLR) Biomarker Activity (AID 2283045);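 note: LDLR protein level on the cell surface quantified by ELISA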
- PROTOCOL CONDITIONS: primary human coronary artery smooth muscle cells; actives raise or lower the signal
Calls of active or inactive are those of the source. The calls were made as follows: active = hit-call score of the fitted dose curve at least 0.9, where 1 is the maximum; inactive = score below 0.9.
Classes used: TRUE = active, FALSE = inactive

| CHEM SMILES | CATEGORY LABEL |
| --- | --- |
| O=C(O)C(F)(F)C(F)(F)C(F)(F)C(F)(F)C(F)(F)C(F)(F)C(F)F | FALSE |
| OC(O)C(F)(F)C(F)(F)F | FALSE |
| NS(=O)(=O)C(F)(F)C(F)(F)C(F)(F)C(F)(F)C(F)(F)C(F)(F)F | FALSE |
| Cc1cc(O)c(C(C)(C)C)cc1C(C)(C)C | TRUE |
| OCC(F)(F)C(F)(F)C(F)(F)CO | FALSE |

---

- PROTOCOL: BSK_CASM3C_SRB: Viability Assessment in the BioMAP Diversity Plus: CASM3C Assay (AID 2283050);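 note: total protein by SRB staining as cytotoxicity measure in parallel cultures; cells exposed to compound for 24 h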
- PROTOCOL CONDITIONS: primary human coronary artery smooth muscle cells
Activity calls are given as the source filed them. How the source made its calls: active means hit-call score of the fitted dose curve at least 0.9, where 1 is the maximum; inactive means score below 0.9.
Classes used: class 1 (active), class 0 (inactive)

| CHEM SMILES | CATEGORY LABEL |
| --- | --- |
| NC(=O)C(F)(F)C(F)(F)C(F)(F)C(F)(F)C(F)(F)C(F)(F)C(F)(F)F | class 0 |
| NC(=O)C(F)(F)C(F)(F)C(F)(F)C(F)(F)C(N)=O | class 0 |
| FC(F)(F)C(F)(F)C(F)(F)C(F)(F)C(F)(F)C(F)(F)C(F)(F)CCI | class 0 |
| O=C1c2c(O)ccc(Nc3ccc(CCO)cc3)c2C(=O)c2c([N+](=O)[O-])ccc(O)c21 | class 1 |
| OCC(F)(F)C(F)(F)C(F)(F)C(F)(F)C(F)(F)C(F)(F)CO | class 0 |

---

- PROTOCOL: ATG_BRE_CIS: Attagene CIS-FACTORIAL HepG2 Assay for human Bone Morphogenetic Protein (BMP) Response Element (BRE) (AID 2282933)
- PROTOCOL CONDITIONS: HepG2 BMP response element reporter, Attagene transcription factor profiling; actives raise or lower the signal
Active and inactive are the calls of the source. Rule for the calls: active = hit-call score of the fitted dose curve at least 0.9, where 1 is the maximum; inactive = score below 0.9.
MEASUREMENT LABEL: outcome

| CHEM SMILES | MEASUREMENT LABEL | RESULT |
| --- | --- | --- |
| O=C(O)C(F)(F)C(F)(F)C(F)(F)OC(F)(F)F | outcome | inactive |
| N#Cc1ccccc1O | outcome | inactive |
| F[Si-2](F)(F)(F)(F)F | outcome | inactive |
| CC1=CCC(=O)O1 | outcome | inactive |
| O=S(=O)(O)CCC(F)(F)C(F)(F)C(F)(F)C(F)(F)F | outcome | inactive |
| Cc1cccc(C)n1 | outcome | inactive |
| CO[Si](C)(CCC(F)(F)C(F)(F)C(F)(F)C(F)(F)C(F)(F)C(F)(F)F)OC | outcome | inactive |

---

- Tested on: SRD5A2 (gene 6716)
- PROTOCOL: CCTE_Deisenroth_5AR_NBTE_ratio: CCTE's 5alpha-reductase NanoBRET Target Engagement Assay - Ratio, Deisenroth Lab (AID 2284322)
- PROTOCOL CONDITIONS: actives raise or lower the signal
The source made the active and inactive calls. How the source made its calls: active means hit-call score of the fitted dose curve at least 0.9, where 1 is the maximum; inactive means score below 0.9.
Classes used: active, inactive

| CHEM SMILES | CATEGORY LABEL |
| --- | --- |
| CCN=c1cc2oc3cc(NCC)c(C)cc3c(-c3ccccc3C(=O)OCC)c-2cc1C | active |
| CCCCCCCCCCCCC[N+](C)(C)Cc1ccccc1 | active |
| O=C1C=CC(=O)N1c1ccccc1 | active |
| CCCCCCCCCc1ccc(OCCO)cc1 | active |
| CCCCCCCC/C=C\CCCCCCCC(=O)N(C)CC(=O)O | inactive |
